Source listed as patent US20070248705A1.

system: quinone reductase (QR) activity in mouse hepatoma Hepa1c1c7 cells; assay: Induction of quinone reductase (QR) activity; assay type: cell-based; conditions: Hepa1c1c7 cells, 0.6, 1.7, 5, and 15 μM, 48 hours
REPORTED_METRIC: QR inducing activity

CCC(C)C(=O)C1=C(O)C(CC=C(C)C)=C(O)C(O)(CC=C(C)C)C1=O (stereo not drawn) [adhumulone, reference compound]	no clear change
CC(C)=CCC1=C(O)C(O)(CC=C(C)C)C(=O)C(C(=O)C(C)C)=C1O (stereo not drawn) [cohumulone, reference compound]	no clear change
